procedure details: n-octanol-water partition co-efficient, log P of the compound after 24 hrs by HPLC analysis
Assay type: physicochemical
reported property: logP

Oc1ccc(Nc2nc(NC3CCCC3)c3ccccc3n2)cc1: 3.95
CNc1nc(Nc2ccc(OC)cc2)nc2ccccc12: 3.21
COc1ccc(Nc2nc(NCCCO)c3ccccc3n2)cc1: 2.54
N#Cc1ccc(Nc2nc(NCCCO)c3ccccc3n2)cc1: 2.84

---

procedure details: Solubility of the compound in phosphate buffer at pH 7.4 by HPLC-UV method
Assay type: physicochemical
reported property: solubility (µg/mL)

CNc1nc(Nc2ccc(OC)cc2)nc2ccccc12: 6.61
CCCNc1nc(N(C)c2ccc(OC)cc2)nc2ccccc12: 3.43
COc1ccc(N(C)c2nc(NC3CCCC3)c3ccccc3n2)cc1: 1.11

[A] COc1ccc(Nc2nc(NCCCO)c3ccccc3n2)cc1
[B] Oc1ccc(Nc2nc(NC3CCCC3)c3ccccc3n2)cc1
Select one. Lower solubility: A or B Answer = label.
B
